assay: Single-dose escalation pharmacokinetics in volunteers; type: in vivo, human; details: human, plasma; 160 mg dosage as free base equivalent, single oral dose; read-out: mean maximum blood plasma concentration (mean Cmax) of the free base

>  <COMPOUND>
CS(=O)(=O)O.Cc1nc(N(C)C(=O)Cc2ccc(-c3ccccn3)cc2)sc1S(N)(=O)=O [mono mesylate monohydrate salt]

>  <Cmax [ng/mL]>
2610

$$$$

---

experiment: Single-dose escalation pharmacokinetics in volunteers; format: in vivo, human; conditions: male, human, plasma; 40 mg dosage as free base equivalent, single oral dose; read-out: AUC0-24h
REPORTED ENDPOINT: AUC(0-t) (ng·h/mL)

>  <COMPOUND>
CS(=O)(=O)O.Cc1nc(N(C)C(=O)Cc2ccc(-c3ccccn3)cc2)sc1S(N)(=O)=O [mono mesylate monohydrate salt]

>  <REPORTED ENDPOINT>
AUC(0-t)

>  <ASSAY RESULT>
10100

$$$$
